Where these numbers come from: patent US9023386B2

tested on: P-gp; assay: Caco-2 uptake study (apparent permeability); type: in vitro ADME; settings: human; Caco-2, 25 μg/ml tacrolimus, Hanks buffer pH 7.4, 60 min, without verapamil
endpoint: Papp at 60 min, 25 μg/ml (×10⁻⁶ cm/s)
// note: answer is a bare numeric in ×10⁻⁶ cm/s

Recall and state the measured Papp at 60 min, 25 μg/ml for "C=CC[C@@H]1/C=C(\C)C[C@H](C)C[C@H](OC)[C@H]2O[C@@](O)(C(=O)C(=O)N3CCCC[C@H]3C(=O)O[C@H](/C(C)=C/[C@@H]3CC[C@@H](O)[C@H](OC)C3)[C@H](C)[C@@H](O)CC1=O)[C@H](C)C[C@@H]2OC" .
2.05
